# Tested on: KM-H2dx (doxorubicin-resistant clone of KM-H2)
# Experimental Protocol: cells
# Condition Set: Homo sapiens, KM-H2, 24 h
Endpoint Name: pIC50
As a rule, pIC50 stands for the negative log10 of the concentration, concentration in M.

// pIC50 lookup, compound = "COc1cccc2c1C(=O)c1c(O)c3c(c(O)c1C2=O)C[C@@](O)(C(=O)CO)C[C@@H]3O[C@H]1C[C@H](N)[C@H](O)[C@H](C)O1" , result: 6.69

====

# Tested on: SKOV3
# Experimental Protocol: cells
# Condition Set: Homo sapiens, SK-OV-3, 24 h
Endpoint Name: pIC50
As a rule, pIC50 stands for the negative log10 of the concentration, concentration in M.

// pIC50 lookup, molecule = "COc1cccc2c1C(=O)c1c(O)c3c(c(O)c1C2=O)C[C@@](O)(C(=O)CO)C[C@@H]3O[C@H]1C[C@H](N)[C@H](O)[C@H](C)O1" , result: 6.88

====

# System: L-428
# Experimental Protocol: cells
# Condition Set: Homo sapiens, L-428, 24 h
Endpoint Name: IC50 (nM)
Kindly provide the numeric value in nM only, without the unit symbol.

// IC50 lookup, compound = "COc1cccc2c1C(=O)c1c(O)c3c(c(O)c1C2=O)C[C@@](O)(C(=O)CO)C[C@@H]3O[C@H]1C[C@H](N)[C@H](O)[C@H](C)O1" , result: 18.4
